pIC50: −log10 of the molar value.
Record set: pIC50 | Dihydrofolate reductase (Lactobacillus casei) | literature, multiple sources.
REPORTED ENDPOINT: pIC50

Consider the following illustrative entries.
COC(=O)CC[C@H](NC(=O)Nc1ccc(N(C)Cc2cnc3nc(N)nc(N)c3n2)cc1)C(=O)OC
6.52
COc1ccc(NCc2cnc3nc(N)nc(N)c3c2C)cc1OC
7.08
Cc1c(CCc2ccc(C(=O)NC(CCC(=O)O)C(=O)O)cc2)cnc2nc(N)nc(N)c12 (stereo unspecified)
7.64

P: Nc1nc(O)c2c(n1)NCC1CN(c3ccc(C(=O)NC(CCC(=O)O)C(=O)O)cc3)CC21 (stereo unspecified)
Q: CN(CC1CCc2nc(N)[nH]c(=O)c2C1)c1ccc(C(=O)NC(CCC(=O)O)C(=O)O)cc1 (stereo unspecified)
R: COC(=O)C[C@H](NC(=O)Nc1ccc(N(C)Cc2cnc3nc(N)nc(N)c3n2)cc1)C(=O)OC
S: Nc1nc(N)c2nc(CNc3ccc(S(=O)(=O)O)cc3)cnc2n1
T: C#CCN(Cc1ccc2nc(C)nc(O)c2c1)c1ccc(C(=O)NC(CCC(=O)O)C(=O)O)cc1 (stereo unspecified)
Exam item: Highest pIC50 first, then in falling order down to the smallest. Enter labels, ranked according to the request.
Marked response: R, S, P, Q, T
(R: 6.22, S: 5.70, P: 5.30, Q: 4.80, T: 4.46)

P: Nc1nc(N)c2c(CCCc3ccc(C(=O)N[C@@H](CCC(=O)O)C(=O)O)cc3)coc2n1
Q: Cc1c(-c2ccc(Cl)c(Cl)c2)sc2nc(N)nc(N)c12
Exam item: Just tell me: smaller pIC50 value, P or Q ? Reply briefly: the label of your chosen item.
Marked response: P
